Target: T1, human Y2 receptor (human, UniProt P49146 1-381)
T1 sequence (looked up): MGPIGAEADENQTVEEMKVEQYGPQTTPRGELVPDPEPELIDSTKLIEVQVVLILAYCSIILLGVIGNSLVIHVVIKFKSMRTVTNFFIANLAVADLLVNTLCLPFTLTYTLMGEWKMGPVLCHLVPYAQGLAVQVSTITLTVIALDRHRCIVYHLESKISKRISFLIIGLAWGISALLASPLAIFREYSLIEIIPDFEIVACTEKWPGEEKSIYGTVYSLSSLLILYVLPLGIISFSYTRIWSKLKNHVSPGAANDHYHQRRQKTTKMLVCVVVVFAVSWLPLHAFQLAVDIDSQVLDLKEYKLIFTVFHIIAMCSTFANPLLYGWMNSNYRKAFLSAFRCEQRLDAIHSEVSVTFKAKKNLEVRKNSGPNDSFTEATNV
Test: cell-based or functional assay
Non-standard residues stand in square brackets, D forms with d. No end group written: not given here. 2Nal = N[C@@H](Cc1ccc2ccccc2c1)C(=O)O; NMeF = CN[C@@H](Cc1ccccc1)C(=O)O; tBuAla = CC(C)(C)C[C@H](N)C(=O)O; Cha = N[C@@H](CC1CCCCC1)C(=O)O; 4Amb = NCc1ccc(C(=O)O)cc1; Aib = CC(C)(N)C(=O)O
Kindly state GBA EC50 Ratio (vs PYY(3-36)), [35S]GTPγS for each of the entries shown.
Dear colleague, please return just the value in ratio, with no unit written.

Supply measured GBA EC50 Ratio (vs PYY(3-36)), [35S]GTPγS of [4Amb]RAYINFITRQRY-NH2 (N-terminus assumed; SMILES CC[C@H](C)[C@H](NC(=O)[C@H](Cc1ccc(O)cc1)NC(=O)[C@H](C)NC(=O)[C@H](CCCNC(=N)N)NC(=O)c1ccc(CN)cc1)C(=O)N[C@@H](CC(N)=O)C(=O)N[C@@H](Cc1ccccc1)C(=O)N[C@H](C(=O)N[C@H](C(=O)N[C@@H](CCCNC(=N)N)C(=O)N[C@@H](CCC(N)=O)C(=O)N[C@@H](CCCNC(=N)N)C(=O)N[C@@H](Cc1ccc(O)cc1)C(N)=O)[C@@H](C)O)[C@@H](C)CC, also called compound No. 54) [4-Aminomethylbenzoyl-[Ala26, Ile28,31, Phe30]-PYY(25-36)] in your reply.
3.4

Supply measured GBA EC50 Ratio (vs PYY(3-36)), [35S]GTPγS of [4Amb]RAYIN[2Nal]ITRQRY-NH2 (N-terminus assumed; SMILES CC[C@H](C)[C@H](NC(=O)[C@H](Cc1ccc(O)cc1)NC(=O)[C@H](C)NC(=O)[C@H](CCCNC(=N)N)NC(=O)c1ccc(CN)cc1)C(=O)N[C@@H](CC(N)=O)C(=O)N[C@@H](Cc1ccc2ccccc2c1)C(=O)N[C@H](C(=O)N[C@H](C(=O)N[C@@H](CCCNC(=N)N)C(=O)N[C@@H](CCC(N)=O)C(=O)N[C@@H](CCCNC(=N)N)C(=O)N[C@@H](Cc1ccc(O)cc1)C(N)=O)[C@@H](C)O)[C@@H](C)CC, also called compound No. 56) [4-Aminomethylbenzoyl-[Ala26, Ile28,31, Nal(2)30]-PYY(25-36)] in your reply.
2.4

Supply measured GBA EC50 Ratio (vs PYY(3-36)), [35S]GTPγS of [4Amb]RGYINLITRQRY-NH2 (N-terminus assumed; SMILES CC[C@H](C)[C@H](NC(=O)[C@H](Cc1ccc(O)cc1)NC(=O)CNC(=O)[C@H](CCCNC(=N)N)NC(=O)c1ccc(CN)cc1)C(=O)N[C@@H](CC(N)=O)C(=O)N[C@@H](CC(C)C)C(=O)N[C@H](C(=O)N[C@H](C(=O)N[C@@H](CCCNC(=N)N)C(=O)N[C@@H](CCC(N)=O)C(=O)N[C@@H](CCCNC(=N)N)C(=O)N[C@@H](Cc1ccc(O)cc1)C(N)=O)[C@@H](C)O)[C@@H](C)CC, also called compound No. 50) [4-Aminomethylbenzoyl-[Gly26, Ile28,31]-PYY(25-36)] in your reply.
4.6

Supply measured GBA EC50 Ratio (vs PYY(3-36)), [35S]GTPγS of [4Amb]RAYLNLITRQRY-NH2 (N-terminus assumed; SMILES CC[C@H](C)[C@H](NC(=O)[C@H](CC(C)C)NC(=O)[C@H](CC(N)=O)NC(=O)[C@H](CC(C)C)NC(=O)[C@H](Cc1ccc(O)cc1)NC(=O)[C@H](C)NC(=O)[C@H](CCCNC(=N)N)NC(=O)c1ccc(CN)cc1)C(=O)N[C@H](C(=O)N[C@@H](CCCNC(=N)N)C(=O)N[C@@H](CCC(N)=O)C(=O)N[C@@H](CCCNC(=N)N)C(=O)N[C@@H](Cc1ccc(O)cc1)C(N)=O)[C@@H](C)O, also called compound No. 20) [4-Aminomethylbenzoyl-[Ala26, Ile31]-PYY(25-36)] in your reply.
2

Supply measured GBA EC50 Ratio (vs PYY(3-36)), [35S]GTPγS of [4Amb]RAYINLITRQR[NMeF]-NH2 (N-terminus assumed; SMILES CC[C@H](C)[C@H](NC(=O)[C@H](Cc1ccc(O)cc1)NC(=O)[C@H](C)NC(=O)[C@H](CCCNC(=N)N)NC(=O)c1ccc(CN)cc1)C(=O)N[C@@H](CC(N)=O)C(=O)N[C@@H](CC(C)C)C(=O)N[C@H](C(=O)N[C@H](C(=O)N[C@@H](CCCNC(=N)N)C(=O)N[C@@H](CCC(N)=O)C(=O)N[C@@H](CCCNC(=N)N)C(=O)N(C)[C@@H](Cc1ccccc1)C(N)=O)[C@@H](C)O)[C@@H](C)CC, also called compound No. 16) [4-Aminomethylbenzoyl-[Ala26, Ile28,31, NMePhe36]-PYY(25-36)] in your reply.
45

Supply measured GBA EC50 Ratio (vs PYY(3-36)), [35S]GTPγS of [dR]LRAYINLITRQRY-NH2 (N-terminus assumed; SMILES CC[C@H](C)[C@H](NC(=O)[C@H](Cc1ccc(O)cc1)NC(=O)[C@H](C)NC(=O)[C@H](CCCNC(=N)N)NC(=O)[C@H](CC(C)C)NC(=O)[C@H](N)CCCNC(=N)N)C(=O)N[C@@H](CC(N)=O)C(=O)N[C@@H](CC(C)C)C(=O)N[C@H](C(=O)N[C@H](C(=O)N[C@@H](CCCNC(=N)N)C(=O)N[C@@H](CCC(N)=O)C(=O)N[C@@H](CCCNC(=N)N)C(=O)N[C@@H](Cc1ccc(O)cc1)C(N)=O)[C@@H](C)O)[C@@H](C)CC, also called compound No. 27) [[D-Arg23, Ala26, Ile28,31]-PYY(23-36)] in your reply.
3.6

Supply measured GBA EC50 Ratio (vs PYY(3-36)), [35S]GTPγS of Ac-E[dP]RH[Cha][Aib]NK[Aib]TRQR[Cha]-NH2 (SMILES CC(=O)N[C@@H](CCC(=O)O)C(=O)N1CCC[C@@H]1C(=O)N[C@@H](CCCNC(=N)N)C(=O)N[C@@H](Cc1c[nH]cn1)C(=O)N[C@@H](CC1CCCCC1)C(=O)NC(C)(C)C(=O)N[C@@H](CC(N)=O)C(=O)N[C@@H](CCCCN)C(=O)NC(C)(C)C(=O)N[C@H](C(=O)N[C@@H](CCCNC(=N)N)C(=O)N[C@@H](CCC(N)=O)C(=O)N[C@@H](CCCNC(=N)N)C(=O)N[C@@H](CC1CCCCC1)C(N)=O)[C@@H](C)O, also called compound No. 171) [Ac-[Glu23, D-Pro24, Cha27,36, Aib28,31, Lys30]-PYY(23-36)] in your reply.
1.6

Supply measured GBA EC50 Ratio (vs PYY(3-36)), [35S]GTPγS of Ac-E[dP]RH[Cha][tBuAla]NK[Aib]TRQR[Cha]-NH2 (SMILES CC(=O)N[C@@H](CCC(=O)O)C(=O)N1CCC[C@@H]1C(=O)N[C@@H](CCCNC(=N)N)C(=O)N[C@@H](Cc1c[nH]cn1)C(=O)N[C@@H](CC1CCCCC1)C(=O)N[C@@H](CC(C)(C)C)C(=O)N[C@@H](CC(N)=O)C(=O)N[C@@H](CCCCN)C(=O)NC(C)(C)C(=O)N[C@H](C(=O)N[C@@H](CCCNC(=N)N)C(=O)N[C@@H](CCC(N)=O)C(=O)N[C@@H](CCCNC(=N)N)C(=O)N[C@@H](CC1CCCCC1)C(N)=O)[C@@H](C)O, also called compound No. 168) [Ac-[Glu23, D-Pro24, Cha27,36, Leu(Me)28, Lys30, Aib31]-PYY(23-36)] in your reply.
1.1
